# tested_system: Metabotropic glutamate receptor 5 (Homo sapiens, UniProt P41594)
# Sequence (P41594 21-1212 limits assumed): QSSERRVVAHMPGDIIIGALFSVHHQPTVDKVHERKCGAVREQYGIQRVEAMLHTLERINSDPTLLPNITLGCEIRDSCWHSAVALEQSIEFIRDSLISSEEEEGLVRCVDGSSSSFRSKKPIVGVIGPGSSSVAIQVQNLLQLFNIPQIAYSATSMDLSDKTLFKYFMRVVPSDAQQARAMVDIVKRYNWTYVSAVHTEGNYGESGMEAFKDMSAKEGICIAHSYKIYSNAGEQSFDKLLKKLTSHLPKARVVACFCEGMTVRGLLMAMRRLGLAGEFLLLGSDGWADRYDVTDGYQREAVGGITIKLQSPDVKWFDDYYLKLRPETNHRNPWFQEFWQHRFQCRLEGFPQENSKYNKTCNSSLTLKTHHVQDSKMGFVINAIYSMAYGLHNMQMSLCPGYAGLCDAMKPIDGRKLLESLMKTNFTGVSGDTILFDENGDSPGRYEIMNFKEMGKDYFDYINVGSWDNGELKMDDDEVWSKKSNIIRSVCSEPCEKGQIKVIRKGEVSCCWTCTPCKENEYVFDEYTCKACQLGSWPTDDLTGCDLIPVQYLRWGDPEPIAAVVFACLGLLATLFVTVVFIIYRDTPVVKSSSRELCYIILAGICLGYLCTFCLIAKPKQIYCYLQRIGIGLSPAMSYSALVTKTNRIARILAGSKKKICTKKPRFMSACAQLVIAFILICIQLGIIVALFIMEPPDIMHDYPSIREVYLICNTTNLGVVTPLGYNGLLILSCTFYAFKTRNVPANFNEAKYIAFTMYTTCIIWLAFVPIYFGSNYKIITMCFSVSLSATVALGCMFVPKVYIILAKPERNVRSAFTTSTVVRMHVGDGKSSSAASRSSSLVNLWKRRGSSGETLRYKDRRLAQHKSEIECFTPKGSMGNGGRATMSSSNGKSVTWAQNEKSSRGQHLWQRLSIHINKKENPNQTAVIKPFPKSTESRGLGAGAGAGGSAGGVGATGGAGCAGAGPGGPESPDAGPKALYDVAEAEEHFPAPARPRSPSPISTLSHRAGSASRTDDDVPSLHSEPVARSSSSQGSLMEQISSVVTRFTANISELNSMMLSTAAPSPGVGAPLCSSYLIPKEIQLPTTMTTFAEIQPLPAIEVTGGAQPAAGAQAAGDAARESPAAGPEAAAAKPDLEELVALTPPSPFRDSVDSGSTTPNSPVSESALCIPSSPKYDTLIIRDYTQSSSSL
# procedure_text: Antagonist activity at cloned mGluR5 expressed in CHO cells co-transfected with chimeric G protein Gqi9 assessed as inhibition of glutamate-induced intracellular inositol phosphate accumulation at 10 uM by phosphoinositide hydrolysis assay
# Format: functional, cell-based
Measured inhibition by item

structure_smiles_string: Cc1cccc(NC(=O)c2cccc(Cl)c2)n1
inhibition: > 70%

structure_smiles_string: Cc1cccc(NC(=O)c2cc(F)cc(F)c2)n1
inhibition: ≤ 70%

structure_smiles_string: Cc1cccc(C#Cc2cccc(C#N)c2)n1
inhibition: > 70%

structure_smiles_string: COc1ccccc1-c1cncc(C(=O)Nc2cccc(C)n2)c1
inhibition: > 70%

structure_smiles_string: Cc1nc(C#Cc2cccnc2)cs1
inhibition: < 70%

structure_smiles_string: Cc1cccc(NC(=O)c2cccc(C#N)c2)n1
inhibition: > 70%

structure_smiles_string: Cc1cccc(NC(=O)c2cccc(-c3ccccc3)c2)n1
inhibition: > 70%

structure_smiles_string: Cc1cccc(NC(=O)c2ccc(-c3cccc4ccccc34)c(C#N)c2)n1
inhibition: > 70%

structure_smiles_string: Cc1cccc(NC(=O)c2ccc(-c3cccnc3)c(Cl)c2)n1
inhibition: > 70%

structure_smiles_string: Cc1nc(C#Cc2ccc(-c3cccnc3)c(F)c2)cs1
inhibition: > 70%

structure_smiles_string: Cc1cccc(NC(=O)c2ccc(-c3cccc(Cl)c3)cc2)n1
inhibition: ≤ 70%

structure_smiles_string: Cc1cccc(NC(=O)c2cncc(-c3cccnc3)c2)n1
inhibition: > 70%

====

# tested_system: UniProtKB P31424
# Sequence (P31424 whole entry): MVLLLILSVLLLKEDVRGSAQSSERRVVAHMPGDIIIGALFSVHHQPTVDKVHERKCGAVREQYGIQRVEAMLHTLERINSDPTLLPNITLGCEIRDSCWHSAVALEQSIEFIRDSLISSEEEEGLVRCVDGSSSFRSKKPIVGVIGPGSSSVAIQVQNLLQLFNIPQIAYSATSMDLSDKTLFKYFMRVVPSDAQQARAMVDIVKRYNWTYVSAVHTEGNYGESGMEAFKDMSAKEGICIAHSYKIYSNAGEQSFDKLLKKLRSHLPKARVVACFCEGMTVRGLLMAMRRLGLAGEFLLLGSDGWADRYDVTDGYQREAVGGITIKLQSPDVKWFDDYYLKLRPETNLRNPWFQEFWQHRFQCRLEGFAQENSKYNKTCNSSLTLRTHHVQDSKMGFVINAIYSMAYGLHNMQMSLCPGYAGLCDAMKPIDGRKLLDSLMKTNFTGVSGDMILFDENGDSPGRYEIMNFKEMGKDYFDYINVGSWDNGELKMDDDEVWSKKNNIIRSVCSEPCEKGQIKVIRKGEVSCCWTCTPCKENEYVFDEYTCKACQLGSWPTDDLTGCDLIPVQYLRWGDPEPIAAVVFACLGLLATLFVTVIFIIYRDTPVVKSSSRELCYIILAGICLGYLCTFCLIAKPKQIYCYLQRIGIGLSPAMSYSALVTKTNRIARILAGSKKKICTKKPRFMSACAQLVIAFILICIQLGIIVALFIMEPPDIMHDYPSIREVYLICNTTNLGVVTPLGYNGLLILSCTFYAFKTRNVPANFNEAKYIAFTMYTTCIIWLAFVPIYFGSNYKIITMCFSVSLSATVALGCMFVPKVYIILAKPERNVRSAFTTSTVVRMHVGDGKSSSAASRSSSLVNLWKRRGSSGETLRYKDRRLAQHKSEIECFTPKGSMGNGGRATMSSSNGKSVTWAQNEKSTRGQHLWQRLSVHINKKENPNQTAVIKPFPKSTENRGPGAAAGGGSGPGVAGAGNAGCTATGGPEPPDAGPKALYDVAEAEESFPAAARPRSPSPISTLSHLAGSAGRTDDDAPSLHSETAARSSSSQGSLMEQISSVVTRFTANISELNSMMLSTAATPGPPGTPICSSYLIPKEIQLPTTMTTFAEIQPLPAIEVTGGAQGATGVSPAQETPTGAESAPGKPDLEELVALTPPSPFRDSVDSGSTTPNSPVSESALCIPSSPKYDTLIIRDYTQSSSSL
# procedure_text: Displacement of [3H]MPEP from rat brain recombinant mGluR5 expressed in HEK293T cells by scintillation counting
pKi: −log10 of the molar value.
# pKi >= 6 gives true, anything below gives false

structure_smiles_string: Cc1cccc(NC(=O)c2ccc(-c3ccc(F)cc3)c(C#N)c2)n1
tested_system: UniProtKB P31424
qualitative_label: true

structure_smiles_string: Cc1cccc(NC(=O)c2ccc(-c3cccc4ccccc34)c(C#N)c2)n1
tested_system: UniProtKB P31424
qualitative_label: true

structure_smiles_string: Cc1cccc(NC(=O)c2cc(F)cc(-c3ccccc3C)c2)n1
tested_system: UniProtKB P31424
qualitative_label: true

structure_smiles_string: Cc1cccc(NC(=O)c2cc(F)cc(C#N)c2)n1
tested_system: UniProtKB P31424
qualitative_label: true

structure_smiles_string: COc1ccccc1-c1cncc(C(=O)Nc2cccc(C)n2)c1
tested_system: UniProtKB P31424
qualitative_label: false

structure_smiles_string: Cc1cccc(NC(=O)c2ccc(-c3cccnc3)c(Cl)c2)n1
tested_system: UniProtKB P31424
qualitative_label: false

structure_smiles_string: Cc1cccc(NC(=O)c2cncc(-c3cccnc3)c2)n1
tested_system: UniProtKB P31424
qualitative_label: false

structure_smiles_string: Cc1cccc(NC(=O)c2ccc(-c3cccnc3)c(F)c2)n1
tested_system: UniProtKB P31424
qualitative_label: false

structure_smiles_string: Cc1cccc(NC(=O)c2cccc(C#N)c2)n1
tested_system: UniProtKB P31424
qualitative_label: true

structure_smiles_string: Cc1cccc(C#Cc2ccc(-c3ccc(F)cc3)c(C#N)c2)n1
tested_system: UniProtKB P31424
qualitative_label: true

structure_smiles_string: Cc1cccc(NC(=O)c2ccc(-c3cccnc3)nc2)n1
tested_system: UniProtKB P31424
qualitative_label: false

structure_smiles_string: Cc1cccc(NC(=O)c2cccc(Cl)c2)n1
tested_system: UniProtKB P31424
qualitative_label: false

structure_smiles_string: Cc1cccc(NC(=O)c2ccc(-c3cccnc3)c(C#N)c2)n1
tested_system: UniProtKB P31424
qualitative_label: false

structure_smiles_string: Cc1cccc(NC(=O)c2cccc(-c3ccccc3)c2)n1
tested_system: UniProtKB P31424
qualitative_label: false

structure_smiles_string: COc1ccccc1-c1cc(F)cc(C(=O)Nc2cccc(C)n2)c1
tested_system: UniProtKB P31424
qualitative_label: false

structure_smiles_string: Cc1cccc(NC(=O)c2ccc(-c3ccccc3)nc2)n1
tested_system: UniProtKB P31424
qualitative_label: true

structure_smiles_string: Cc1cccc(C#Cc2cccc(C#N)c2)n1
tested_system: UniProtKB P31424
qualitative_label: true

====

# tested_system: UniProt:P23975
# Sequence (P23975 whole entry): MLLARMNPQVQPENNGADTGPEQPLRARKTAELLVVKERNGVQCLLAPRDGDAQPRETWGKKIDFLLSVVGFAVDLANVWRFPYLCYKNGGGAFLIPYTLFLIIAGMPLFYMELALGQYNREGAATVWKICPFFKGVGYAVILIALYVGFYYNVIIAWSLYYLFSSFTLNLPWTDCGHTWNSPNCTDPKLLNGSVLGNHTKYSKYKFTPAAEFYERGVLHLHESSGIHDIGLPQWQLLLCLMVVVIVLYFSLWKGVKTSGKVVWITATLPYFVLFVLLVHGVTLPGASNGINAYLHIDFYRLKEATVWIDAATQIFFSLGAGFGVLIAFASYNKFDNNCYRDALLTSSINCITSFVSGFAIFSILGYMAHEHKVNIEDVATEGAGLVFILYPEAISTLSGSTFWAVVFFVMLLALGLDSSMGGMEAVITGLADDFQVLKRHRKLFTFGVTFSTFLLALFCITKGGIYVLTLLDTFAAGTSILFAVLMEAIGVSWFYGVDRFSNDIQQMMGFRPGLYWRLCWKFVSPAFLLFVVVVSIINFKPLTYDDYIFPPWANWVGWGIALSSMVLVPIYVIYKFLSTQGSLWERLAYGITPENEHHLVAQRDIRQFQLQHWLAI
# procedure_text: Displacement of [125I]RTI55 from human NET expressed in HEK293 cells
# Assay type: cell-based

structure_smiles_string: Cc1cccc(NC(=O)c2ccc(-c3ccccc3)c(C#N)c2)n1
Ki: > 6 µM
--
structure_smiles_string: Cc1nc(C#Cc2cc(F)cc(-c3cccnc3)c2)cs1
Ki: > 6 µM
--
structure_smiles_string: Cc1cccc(NC(=O)c2ccc(-c3cccc(F)c3)c(C#N)c2)n1
Ki: > 6 µM
--
structure_smiles_string: Cc1nc(C#Cc2ccc(-c3cccnc3)c(F)c2)cs1
Ki: > 6 µM

====

inhibition listing for selected compounds.
# tested_system: Metabotropic glutamate receptor 1 (Homo sapiens)
# procedure_text: Antagonist activity at cloned mGluR1 expressed in CHO cells co-transfected with chimeric G protein Gqi9 assessed as inhibition of glutamate-induced intracellular inositol phosphate accumulation at 10 uM by phosphoinositide hydrolysis assay
# Assay type: functional, cell-based

structure_smiles_string: Cc1cccc(NC(=O)c2ccc(-c3cccc4ccccc34)c(C#N)c2)n1
inhibition: < 70%
//
structure_smiles_string: Cc1cccc(NC(=O)c2cccc(-c3ccccc3)c2)n1
inhibition: < 70%
//
structure_smiles_string: Cc1nc(C#Cc2ccc(-c3cccnc3)nc2)cs1
inhibition: < 70%
//
structure_smiles_string: Cc1cccc(NC(=O)c2ccc(Br)cc2)n1
inhibition: < 70%
//
structure_smiles_string: Cc1nc(C#Cc2ccc(-c3ccccc3)nc2)cs1
inhibition: < 70%
//
structure_smiles_string: Cc1cccc(NC(=O)c2ccc(-c3cccnc3)c(C#N)c2)n1
inhibition: < 70%
//
structure_smiles_string: Cc1cccc(NC(=O)c2cncc(-c3cccnc3)c2)n1
inhibition: < 70%
//
structure_smiles_string: Cc1cccc(NC(=O)c2ccc(C#N)cc2)n1
inhibition: < 70%
//
structure_smiles_string: Cc1cccc(NC(=O)c2ccc(-c3cccc(C#N)c3)cc2)n1
inhibition: < 70%
//
structure_smiles_string: Cc1cccc(C#Cc2cccc(C#N)c2)n1
inhibition: < 70%
//
structure_smiles_string: Cc1cccc(NC(=O)c2ccc(-c3ccc(F)cc3)c(C#N)c2)n1
inhibition: < 70%
//
structure_smiles_string: COc1ccccc1-c1cc(F)cc(C(=O)Nc2cccc(C)n2)c1
inhibition: < 70%
//
structure_smiles_string: Cc1cccc(NC(=O)c2cc(F)cc(F)c2)n1
inhibition: < 70%
//
structure_smiles_string: Cc1cccc(NC(=O)c2ccc(-c3ccccc3)cc2)n1
inhibition: < 70%
//
structure_smiles_string: Cc1cccc(NC(=O)c2cc(-c3cc(F)cc(F)c3)ccn2)n1
inhibition: < 70%
//
structure_smiles_string: Cc1cccc(NC(=O)c2ccc(-c3cccc(F)c3)c(C#N)c2)n1
inhibition: < 70%
//
structure_smiles_string: COc1ccccc1-c1cncc(C(=O)Nc2cccc(C)n2)c1
inhibition: < 70%
//
structure_smiles_string: Cc1cccc(NC(=O)c2ccc(F)c(F)c2)n1
inhibition: < 70%
//
structure_smiles_string: Cc1cccc(NC(=O)c2ccc(-c3cccc(Cl)c3)cc2)n1
inhibition: < 70%
//
structure_smiles_string: Cc1nc(C#Cc2ccc(-c3cccnc3)c(F)c2)cs1
inhibition: < 70%
//
structure_smiles_string: Cc1nc(C#Cc2cc(F)cc(C#N)c2)cs1
inhibition: < 70%
//
structure_smiles_string: Cc1cccc(NC(=O)c2cc(F)cc(C#N)c2)n1
inhibition: < 70%
//
structure_smiles_string: Cc1cccc(NC(=O)c2cc(F)cc(-c3cccnc3)c2)n1
inhibition: < 70%
//
structure_smiles_string: Cc1cccc(C#Cc2ccccc2)n1
inhibition: < 70%
//
structure_smiles_string: Cc1nc(C#Cc2cc(F)cc(-c3cccnc3)c2)cs1
inhibition: < 70%
//
structure_smiles_string: Cc1nc(C#Cc2cccnc2)cs1
inhibition: < 70%
//
structure_smiles_string: Cc1nc(C#Cc2cccc(-c3ccccc3)c2)cs1
inhibition: < 70%
//
structure_smiles_string: Cc1cccc(NC(=O)c2cccc(Cl)c2)n1
inhibition: < 70%
//
structure_smiles_string: Cc1cccc(NC(=O)c2ccc(-c3cccnc3)c(F)c2)n1
inhibition: < 70%
//
structure_smiles_string: Cc1cccc(C#Cc2ccc(-c3ccc(F)cc3)c(C#N)c2)n1
inhibition: < 70%
//
structure_smiles_string: Cc1cccc(NC(=O)c2ccc(Oc3ccccc3)cc2)n1
inhibition: < 70%
//
structure_smiles_string: Cc1cccc(NC(=O)c2ccc(-c3cccnc3)nc2)n1
inhibition: < 70%
//
structure_smiles_string: Cc1cccc(NC(=O)c2cc(F)cc(-c3ccccc3C)c2)n1
inhibition: < 70%
//
structure_smiles_string: Cc1cccc(NC(=O)c2cccc(C#N)c2)n1
inhibition: < 70%
//
structure_smiles_string: Cc1cccc(NC(=O)c2ccc(-c3ccccc3)nc2)n1
inhibition: < 70%
//
structure_smiles_string: Cc1cccc(NC(=O)c2ccc(-c3cccnc3)c(Cl)c2)n1
inhibition: < 70%
